experimental.context: in acetone, 278.15 K
measured.property: solubility (mole fraction)
Give the figure by itself; no unit, no explanation.

Inquiry: Using the record for C=CC(=O)N1CCC[C@@H](n2nc(-c3ccc(Oc4ccccc4)cc3)c3c(N)ncnc32)C1 , state its measured solubility (mole fraction).
Reply text: 0.00362

----------
experimental.context: in isopropanol, 308.15 K
measured.property: solubility (mole fraction)
Give the figure by itself; no unit, no explanation.

Inquiry: Using the record for C=CC(=O)N1CCC[C@@H](n2nc(-c3ccc(Oc4ccccc4)cc3)c3c(N)ncnc32)C1 , state its measured solubility (mole fraction).
Reply text: 0.00217

----------
experimental.context: in acetonitrile, 278.15 K
measured.property: solubility (mole fraction)

Inquiry: Using the record for C=CC(=O)N1CCC[C@@H](n2nc(-c3ccc(Oc4ccccc4)cc3)c3c(N)ncnc32)C1 , state its measured solubility (mole fraction).
Reply text: 0.000672

----------
experimental.context: in n-butanol, 308.15 K
measured.property: solubility (mole fraction)
Give the figure by itself; no unit, no explanation.

Inquiry: Using the record for C=CC(=O)N1CCC[C@@H](n2nc(-c3ccc(Oc4ccccc4)cc3)c3c(N)ncnc32)C1 , state its measured solubility (mole fraction).
Reply text: 0.0054

----------
experimental.context: in isopropanol, 288.15 K
measured.property: solubility (mole fraction)

Inquiry: Using the record for C=CC(=O)N1CCC[C@@H](n2nc(-c3ccc(Oc4ccccc4)cc3)c3c(N)ncnc32)C1 , state its measured solubility (mole fraction).
Reply text: 0.000734

----------
experimental.context: in MTBE, 293.15 K
measured.property: solubility (mole fraction)
Give the figure by itself; no unit, no explanation.

Inquiry: Using the record for C=CC(=O)N1CCC[C@@H](n2nc(-c3ccc(Oc4ccccc4)cc3)c3c(N)ncnc32)C1 , state its measured solubility (mole fraction).
Reply text: 0.000305

----------
experimental.context: in ethyl acetate, 323.15 K
measured.property: solubility (mole fraction)
Give the figure by itself; no unit, no explanation.

Inquiry: Using the record for C=CC(=O)N1CCC[C@@H](n2nc(-c3ccc(Oc4ccccc4)cc3)c3c(N)ncnc32)C1 , state its measured solubility (mole fraction).
Reply text: 0.0107

----------
experimental.context: in MTBE, 308.15 K
measured.property: solubility (mole fraction)

Inquiry: Using the record for C=CC(=O)N1CCC[C@@H](n2nc(-c3ccc(Oc4ccccc4)cc3)c3c(N)ncnc32)C1 , state its measured solubility (mole fraction).
Reply text: 0.000404

----------
experimental.context: in isopropanol, 313.15 K
measured.property: solubility (mole fraction)
Give the figure by itself; no unit, no explanation.

Inquiry: Using the record for C=CC(=O)N1CCC[C@@H](n2nc(-c3ccc(Oc4ccccc4)cc3)c3c(N)ncnc32)C1 , state its measured solubility (mole fraction).
Reply text: 0.00278

----------
experimental.context: in 2-butanone, 298.15 K
measured.property: solubility (mole fraction)
Give the figure by itself; no unit, no explanation.

Inquiry: Using the record for C=CC(=O)N1CCC[C@@H](n2nc(-c3ccc(Oc4ccccc4)cc3)c3c(N)ncnc32)C1 , state its measured solubility (mole fraction).
Reply text: 0.00988

----------
experimental.context: in acetone, 308.15 K
measured.property: solubility (mole fraction)
Give the figure by itself; no unit, no explanation.

Inquiry: Using the record for C=CC(=O)N1CCC[C@@H](n2nc(-c3ccc(Oc4ccccc4)cc3)c3c(N)ncnc32)C1 , state its measured solubility (mole fraction).
Reply text: 0.00921
